From: PubChem BioAssay (NCI)

System: MOLT-4 leukemia
assay overview: NCI-60 one-dose screen, 48 h
assay conditions: 10 µM
The panel holds about 83,000 compounds, 20% with a hit somewhere; the sample as a whole holds those more often. The source made the active and inactive calls. How the source made its calls: active means growth percent below 10; inactive means the rest.
Hi! Could you answer with just one of these? active, inactive

Exercise: GET /call?item= `CN1c2ccccc2[C@]2(Cc3ccccc3)Cc3ccccc3N[C@H]12` returns the recorded outcome of this test.
Key: inactive

Exercise: GET /call?item= `NC1(C(=O)O)CSSC1` returns the recorded outcome of this test.
Key: inactive

Exercise: GET /call?item= `Cc1ccc(NC(=O)NC2CCCCC2)cc1` returns the recorded outcome of this test.
Key: inactive

Exercise: GET /call?item= `Nc1ncn([C@@H]2O[C@H](CO)[C@@H](O)[C@H]2O)c(=O)n1` returns the recorded outcome of this test.
Key: inactive

Exercise: GET /call?item= `CCOC(=O)N1C/C(=C/c2ccc(F)cc2)C(=O)/C(=C/c2ccc(F)cc2)C1` returns the recorded outcome of this test.
Key: active

Exercise: GET /call?item= `O=C(Nc1ccc(CO)cc1)c1ccccc1Nc1ccnc(C(F)(F)F)c1` returns the recorded outcome of this test.
Key: inactive
